Source listed as paper PMC4503722.

test system: HeLa cells; assay: cells; assay type: cell-based; details: assay number 17; MI
# Lookup of reported Hela CellCycMod PI MI IC50/EC50 keyed by entry

molecule | Hela CellCycMod PI MI IC50/EC50
NCCCC[C@H](N[C@@H](CCc1ccccc1)C(=O)O)C(=O)N1CCC[C@H]1C(=O)O | > 10 µM
CC[C@]1(O)C[C@H]2CN(CCc3c([nH]c4ccccc34)[C@@](C(=O)OC)(c3cc4c(cc3OC)N(C=O)[C@H]3[C@@](O)(C(=O)OC)[C@H](OC(C)=O)[C@]5(CC)C=CCN6CC[C@]43[C@@H]65)C2)C1 | 0.0061 µM
CC(C)OC(=O)OCOP(=O)(CO[C@H](C)Cn1cnc2c(N)ncnc21)OCOC(=O)OC(C)C.O=C(O)/C=C/C(=O)O | > 10 µM
CCC(C)n1ncn(-c2ccc(N3CCN(c4ccc(OC[C@H]5CO[C@](Cn6cncn6)(c6ccc(Cl)cc6Cl)O5)cc4)CC3)cc2)c1=O (some centres unmarked) | > 10 µM
Cc1cc(=O)c2c(O)c3c(O)cc(=O)c4c3c3c(cc(O)c1c23)C(C)(C)C=4O | > 10 µM
O=C(CCl)c1ccc(Cl)cc1Cl | 0.541 µM
Cc1cc(O)c2ccccc2c1O | > 10 µM
Cl.O[C@@H](CNC[C@H](O)[C@H]1CCc2cc(F)ccc2O1)[C@@H]1CCc2cc(F)ccc2O1 | > 10 µM
Cc1nc(Nc2ncc(C(=O)Nc3c(C)cccc3Cl)s2)cc(N2CCN(CCO)CC2)n1 | > 10 µM
Cc1ccccc1C(=O)Nc1ccc(C(=O)N2CCCC(N(C)C)c3ccccc32)cc1 (centres unmarked) | 3.4063 µM
CC(C)C[C@H](NC(=O)[C@H](CCc1ccccc1)NC(=O)CN1CCOCC1)C(=O)N[C@@H](Cc1ccccc1)C(=O)N[C@@H](CC(C)C)C(=O)[C@@]1(C)CO1 | > 10 µM
Nc1nc(Cl)nc2c1ncn2[C@@H]1O[C@H](CO)[C@@H](O)[C@@H]1F | > 10 µM
C[C@@]12C(=O)OC(=O)[C@]1(C)C1CCC2O1 | 8.4996 µM
CCN(CC)CCOc1ccc(C(O)(Cc2ccc(Cl)cc2)c2ccc(C)cc2)cc1 (centres unmarked) | > 10 µM
COc1cccc2c1C(=O)c1c(O)c3c(c(O)c1C2=O)C[C@@](O)(C(=O)CO)CC3OC1CC(N2CCOC(OC)C2)C(O)C(C)O1 (some centres unmarked) | 0.01176 µM
Nc1nc(F)nc2c1ncn2[C@@H]1O[C@H](CO)[C@@H](O)[C@@H]1O | > 10 µM
CC[C@H]1CN2CCc3cc(OC)c(OC)cc3[C@@H]2C[C@@H]1C[C@H]1NCCc2cc(OC)c(OC)cc21 | 0.9477 µM

----------
test system: RKO; assay: cells; assay type: cell-based; conditions: Homo sapiens, RKO, read-out: Basal_Viability ATP RKO
pIC50: −log10 of the molar value.
measured endpoint: pIC50

compound | target desc | rel | reported
COc1c(C)c2c(c(O)c1C/C=C(\C)CCC(=O)O)C(=O)OC2 [Mycophenolate] | RKO | = | 6.78
COc1cc(NC(C)CCCN)c2ncccc2c1 (centres unmarked) | RKO | < | 4.70
COC(=O)Nc1nc2ccc([S+]([O-])c3ccccc3)cc2[nH]1 (centres unmarked) | RKO | = | 9.00
CO[C@@]12[C@H](COC(N)=O)C3=C(C(=O)C(C)=C(N)C3=O)N1C[C@@H]1N[C@@H]12 | RKO | = | 6.00
Cc1cc(O)c2c3c4c(cc(O)c13)C(C)(C)C(=O)c1c(O)cc(O)c(c1-4)C2=O | RKO | = | 7.12
COCc1c(C(C)C)nc(C(C)C)c(/C=C/[C@@H](O)C[C@@H](O)CC(=O)O)c1-c1ccc(F)cc1 [cerivastatin, reference compound] | RKO | = | 5.99
COc1cc(NCc2ccc3nc(N)nc(N)c3c2C)cc(OC)c1OC [trimetrexate, reference compound] | RKO | = | 8.57
Oc1c(I)cc(I)c2cccnc12 [Diiodohydroxyquinoline] | RKO | = | 7.64
